B1: library; numbered along this chain (parent)
chain: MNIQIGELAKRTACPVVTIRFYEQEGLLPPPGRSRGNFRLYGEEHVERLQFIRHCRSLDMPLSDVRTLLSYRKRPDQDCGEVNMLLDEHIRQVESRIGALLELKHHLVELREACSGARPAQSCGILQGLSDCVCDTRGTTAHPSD

- Variants of: B1
- Assay Protocol: sfGFP reporter fluorescence (15 h) (µM FITC); higher = higher leak
- Condition: library round: Round 0; ligand: none
// values below are reported sfGFP reporter fluorescence

Examples from the recorded data:
L58E | 0.0619
E112C | 0.0616
R20H | 0.0618
D135W | 0.0737
R111A | 0.0634

Looking for the measured sfGFP reporter fluorescence of `M60L` , can you help?
0.106

Please do the same for `E43K` as well.
0.0594

Please do the same for `D135T` as well.
0.0608

Please do the same for M60L K104V L107C G128I as well.
1.22

Please do the same for `E109Y` as well.
0.0603

Please do the same for `E94G` as well.
0.0553
